molecular target: C-X-C chemokine receptor type 6 (Homo sapiens); assay: potency against CXCR6 with APJ panel – cell-based, beta-arrestin, DiscoveRx, uHTS hits, dose response (AID 624129); settings: CXCR6 beta-arrestin (DiscoveRx) antagonist cell assay, CXCR6, run 2, dose range 2
pIC50: −log10 of the molar value.
# label = True if pIC50 >= 5 else False

Q) Reported pIC50 at or above 5? `O=[N+]([O-])c1ccc(Sc2nc3ccccc3o2)c([N+](=O)[O-])c1`
A) False

Q) Reported pIC50 at or above 5? `CCOc1ccc(/C=C/[N+](=O)[O-])c2ccccc12`
A) False

Q) Reported pIC50 at or above 5? `C=CC[C@H](CC(=O)N(CCO)Cc1ccccc1)C(=O)NC[C@H](OC(=O)[C@@H](CC=C)CC(=O)OC(C)(C)C)c1ccccc1`
A) False

Q) Reported pIC50 at or above 5? `COc1cc(/C=C/c2ccc3cccc(O)c3n2)cc(OC)c1OC`
A) True

Q) Reported pIC50 at or above 5? `Cc1ccc2c(C)ccc(O)c2n1`
A) True

###

biological target: C-X-C chemokine receptor type 6 (Homo sapiens) (UniProt O00574); experiment: potency against CXCR6 with APJ panel – cell-based, beta-arrestin, DiscoveRx, uHTS hits, dose response (AID 624129); settings: CXCR6 beta-arrestin (DiscoveRx) antagonist cell assay, CXCR6, run 2, dose range 1
Sequence (O00574 whole entry, looked up): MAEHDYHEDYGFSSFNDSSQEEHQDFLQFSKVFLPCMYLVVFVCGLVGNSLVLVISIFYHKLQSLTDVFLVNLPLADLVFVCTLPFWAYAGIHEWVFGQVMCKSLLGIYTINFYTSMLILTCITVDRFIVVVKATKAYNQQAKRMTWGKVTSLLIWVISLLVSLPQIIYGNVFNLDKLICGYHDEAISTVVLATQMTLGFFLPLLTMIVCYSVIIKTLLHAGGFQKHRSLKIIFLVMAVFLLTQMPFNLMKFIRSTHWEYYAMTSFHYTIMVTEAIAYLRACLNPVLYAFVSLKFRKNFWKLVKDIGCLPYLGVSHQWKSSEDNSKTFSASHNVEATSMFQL
reported.metric: pIC50
Kindly note that pIC50 refers to -log10 of the concentration in mol/L and answer with the value alone.

Query `COC(=O)c1ccc2c(c1)C(C)(C)C(/C=C/c1ccc(OC)c(OC)c1OC)=[N+]2C` on C-X-C chemokine receptor type 6 (Homo sapiens) (UniProt O00574); pIC50 returned: 4.98

Query `CCO[C@@H]1OC(C(=O)N2CCN(Cc3ccccc3)CC2)=C[C@H](c2ccc(Br)cc2)[C@H]1CCCO` on C-X-C chemokine receptor type 6 (Homo sapiens) (UniProt O00574); pIC50 returned: 5.04

Query `CNC(=O)c1nnsc1S(=O)(=O)c1ccc(Cl)cc1` on C-X-C chemokine receptor type 6 (Homo sapiens) (UniProt O00574); pIC50 returned: 4.97

###

Would you mind telling me the reported pIC50 of each entry?
biological target: C-X-C chemokine receptor type 6 (Homo sapiens); assay: potency against CXCR6 with APJ panel – cell-based, beta-arrestin, DiscoveRx, uHTS hits, dose response (AID 624129); conditions: CXCR6 beta-arrestin (DiscoveRx) antagonist cell assay, CXCR6, run 2, dose range 2
Kindly note that pIC50 refers to -log10 of the concentration in mol/L and answer with the value alone.

// recorded pIC50 for `Cc1cccc(C(=O)Nc2ccc(C(=O)/C=C/c3cccnc3)cc2)c1` : 5.13

// recorded pIC50 for `CC(C)[C@H](NC(=O)OC(C)(C)C)c1nnc(S(=O)(=O)Cc2c(F)cccc2Cl)o1` : 4.86

// recorded pIC50 for CCC(C)c1ccc(O)c(NC(=S)NC(=O)c2cccnc2)c1 (centres undefined) : 4.89

// recorded pIC50 for `Cc1ccc(S(=O)(=O)c2ccc([N+](=O)[O-])cn2)cc1` : 4.93

###

target: C-C chemokine receptor type 6 (Homo sapiens) (UniProt P51684); assay: potency against CXCR6 with APJ panel – cell-based, beta-arrestin, DiscoveRx, uHTS hits, dose response (AID 624129); conditions: CXCR6 beta-arrestin (DiscoveRx) antagonist cell assay, CCR6, dose range 1, mean IC50 across replicates
reported.metric: pIC50
Kindly note that pIC50 refers to -log10 of the concentration in mol/L and answer with the value alone.

// recorded pIC50 for `CC(=O)/C(=N\Nc1ccc(Cl)cc1Cl)Sc1cccc2cccnc12` : 5.40

// recorded pIC50 for `COc1ccc(C)c(-n2c(=O)n(Cc3ccccc3)c(=O)c3[nH]cnc32)c1` : 5.04

// recorded pIC50 for `CC(=NNc1nc2ccccc2s1)c1ncccn1` : 5.05
